System: human GLP-1R (Homo sapiens, UniProt P43220, G168S)
Sequence (P43220 24-463 G168S limits assumed): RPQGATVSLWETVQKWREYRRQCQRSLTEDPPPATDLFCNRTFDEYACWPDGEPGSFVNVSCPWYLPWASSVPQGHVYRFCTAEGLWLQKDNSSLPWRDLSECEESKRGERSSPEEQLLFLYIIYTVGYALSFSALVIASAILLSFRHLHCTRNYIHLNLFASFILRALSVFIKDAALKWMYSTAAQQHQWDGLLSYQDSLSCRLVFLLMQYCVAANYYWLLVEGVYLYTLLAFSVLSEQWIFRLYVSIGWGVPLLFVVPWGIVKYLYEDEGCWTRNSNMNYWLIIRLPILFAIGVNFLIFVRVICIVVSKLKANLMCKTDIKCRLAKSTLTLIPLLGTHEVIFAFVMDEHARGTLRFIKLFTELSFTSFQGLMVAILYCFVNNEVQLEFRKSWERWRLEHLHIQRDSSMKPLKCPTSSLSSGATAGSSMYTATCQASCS
Measurement Notes: CHO GLP-1R Clone H6 - Assay 1 (HTRF cAMP agonist assay)
Assay type: cell-based
Condition Set: CHO GLP-1R Clone H6; arithmetic mean, relative to saturating GLP-1 (1 μM)
Reported Endpoint: Emax (%)

Cn1cc(Cn2c(CN3CCC(c4cccc5c4OC(C)(c4ccc(Cl)cc4F)O5)CC3)nc3ccc(C(=O)O)cc32)nn1 (stereo not shown)    91
CC1(c2ccc(Cl)cc2F)Oc2cccc(C3CCN(Cc4nc5ccc(C(=O)O)cc5n4CCn4cccn4)CC3)c2O1 (stereo not shown)    87
COCCn1c(CN2CCC(c3cccc4c3OC(c3ccc(Cl)cc3F)O4)CC2)nc2ccc(C(=O)O)cc21 (stereo not shown)    85
CC1(c2ccc(Cl)cc2F)Oc2cccc(C3CCN(Cc4nc5ccc(C(=O)O)cc5n4Cc4cn[nH]c4)CC3)c2O1 (stereo not shown)    98
COCCn1c(CN2CCC(c3cccc4c3OC(C)(c3ccccc3)O4)CC2)nc2ccc(C(=O)O)cc21 (stereo not shown)    83
CC1(c2ccc(Cl)cc2F)Oc2cccc(C3CCN(Cc4nc5ccc(C(=O)O)cc5n4Cc4cccnc4)CC3)c2O1 (stereo not shown)    99
CC1(c2ccc(Cl)cc2F)Oc2cccc(C3CCN(Cc4nc5ccc(C(=O)O)cc5n4CCN4CCCC4=O)CC3)c2O1 (stereo not shown)    81
CC1(c2ccc(Cl)cc2F)Oc2cccc(C3CCN(Cc4nc5ccc(C(=O)O)cc5n4CCN4CCOCC4)CC3)c2O1 (stereo not shown)    78
COCCn1c(CN2CCC(c3cccc4c3OC(C)(c3ccccn3)O4)CC2)nc2ccc(C(=O)O)cc21 (stereo not shown)    85
Cn1cc(CCn2c(CN3CCC(c4cccc5c4OC(C)(c4ccc(Cl)cc4F)O5)CC3)nc3ccc(C(=O)O)cc32)nn1 (stereo not shown)    82
COCCn1c(CN2CCC(c3cccc4c3OC(C)(c3ccc(C(F)(F)F)cc3)O4)CC2)nc2ccc(C(=O)O)cc21 (stereo not shown)    88
CC1(c2ccc(Cl)cn2)Oc2cccc(C3CCN(Cc4nc5ccc(C(=O)O)cc5n4C[C@@H]4CCO4)CC3)c2O1 (single isomer, unassigned) [Example 10]    99
COCCn1c(CN2CCC(c3cccc4c3OC(CO)(c3ccccc3)O4)CC2)nc2ccc(C(=O)O)cc21 (stereo not shown)    86
O=C(O)c1ccc2nc(CN3CCC(c4cccc5c4O[C@H](c4ccc(Cl)cc4F)O5)CC3)n(C[C@@H]3CCO3)c2c1    87
COCCn1c(CN2CCC(c3cccc4c3OC(C)(c3cccc(OC)c3)O4)CC2)nc2ccc(C(=O)O)cc21 (stereo not shown)    83
COCCn1c(CN2CCN(c3cccc4c3OC(c3ccccc3)O4)CC2)nc2ccc(C(=O)O)cc21 (stereo not shown)    76
CC1(c2ccc(Cl)cc2F)Oc2cccc(C3CCN(Cc4nc5ccc(C(=O)O)cc5n4CCn4ccnc4)CC3)c2O1 (stereo not shown)    87
CC1(c2ccc(Cl)cc2F)Oc2cccc(C3CCN(Cc4nc5ccc(C(=O)O)cc5n4CC4(O)CCC4)CC3)c2O1 (stereo not shown)    76
CC1(c2ccc(Cl)cc2F)Oc2cccc(C3CCN(Cc4nc5ccc(C(=O)O)cc5n4Cc4cocn4)CC3)c2O1 (stereo not shown)    98
COCCn1c(C2CC23CCN(c2cccc4c2OC(C)(c2ccc(Cl)cc2F)O4)CC3)nc2ccc(C(=O)O)cc21 (single isomer, unassigned)    100
CN(C)C(=O)CCn1c(CN2CCC(c3cccc4c3OC(C)(c3ccc(Cl)cc3F)O4)CC2)nc2ccc(C(=O)O)cc21 (stereo not shown)    85
Cc1nccn1CCn1c(CN2CCC(c3cccc4c3OC(C)(c3ccc(Cl)cc3F)O4)CC2)nc2ccc(C(=O)O)cc21 (stereo not shown)    94
